PBA (+ inh) by entry:
- Tested on: MDCKII-MDR1 cells
- assay_protocol: Transport and cell association across MDCKII-MDR1 monolayers
- Type: in vitro ADME
- run_parameters: secretory direction, with 5 × 10^−6 M LSN 335984, 5 × 10^−6 M dye, BSA
observable: PBA (+ inh)

[[record]]
compound = "CCN(CC)C(=S)c1ccc(-c2c3ccc(N(C)C)cc3[s+]c3c4c5c(cc23)CCCN5CCC4)s1.F[P-](F)(F)(F)(F)F [Compound 6]"
tgt = "MDCKII-MDR1 cells"
value_observed = "2.7 ± 0.1 10^−9 m s^−1"

[[record]]
compound = "CN(C)c1ccc2c(-c3ccc(C(=O)N4CCCCC4)s3)c3cc4c5c(c3[s+]c2c1)CCCN5CCC4.F[P-](F)(F)(F)(F)F [Compound 7]"
tgt = "MDCKII-MDR1 cells"
value_observed = "8.1 ± 0.1 10^−9 m s^−1"

[[record]]
compound = "CCN(CC)C(=O)c1ccc(-[c+]2c3ccc(N(C)C)cc3sc3cc4c(cc32)C(C)(C)CCN4C)s1.F[P-](F)(F)(F)(F)F [Compound 9]"
tgt = "MDCKII-MDR1 cells"
value_observed = "27.0 ± 0.3 10^−9 m s^−1"

[[record]]
compound = "CCN(CC)C(=O)c1ccc(-c2c3ccc(N(C)C)cc3[s+]c3c4c5c(cc23)CCCN5CCC4)s1.F[P-](F)(F)(F)(F)F [Compound 5]"
tgt = "MDCKII-MDR1 cells"
value_observed = "17.0 ± 0.4 10^−9 m s^−1"

[[record]]
compound = "CCN(CC)C(=S)c1ccc(-[c+]2c3ccc(N(C)C)cc3sc3cc4c(cc32)C(C)(C)CCN4C)s1.F[P-](F)(F)(F)(F)F [Compound 10]"
tgt = "MDCKII-MDR1 cells"
value_observed = "1.0 ± 0.1 10^−9 m s^−1"


---

- Tested on: MDCKII-MDR1 cells
- assay_protocol: Transport and cell association across MDCKII-MDR1 monolayers
- Assay type: in vitro ADME
- run_parameters: inhibited / uninhibited pump
# Ratio (+/− inh) for % cell associated dye annotations
observable: Ratio (+/− inh) for % cell associated dye

[[record]]
compound = "CCN(CC)C(=S)c1ccc(-c2c3ccc(N(C)C)cc3[s+]c3c4c5c(cc23)CCCN5CCC4)s1.F[P-](F)(F)(F)(F)F [Compound 6]"
value_observed = "1.2-2.1"

[[record]]
compound = "CCN(CC)C(=O)c1ccc(-[c+]2c3ccc(N(C)C)cc3sc3cc4c(cc32)C(C)(C)CCN4C)s1.F[P-](F)(F)(F)(F)F [Compound 9]"
value_observed = "3.3-6.1"

[[record]]
compound = "CCN(CC)C(=S)c1ccc(-[c+]2c3ccc(N(C)C)cc3sc3cc4c(cc32)C(C)(C)CCN4C)s1.F[P-](F)(F)(F)(F)F [Compound 10]"
value_observed = "1.2-2.1"

[[record]]
compound = "CCN(CC)C(=O)c1ccc(-c2c3ccc(N(C)C)cc3[s+]c3c4c5c(cc23)CCCN5CCC4)s1.F[P-](F)(F)(F)(F)F [Compound 5]"
value_observed = "3.3-6.1"

[[record]]
compound = "CN(C)c1ccc2c(-c3ccc(C(=O)N4CCCCC4)s3)c3cc4c5c(c3[s+]c2c1)CCCN5CCC4.F[P-](F)(F)(F)(F)F [Compound 7]"
value_observed = "3.3-6.1"

